The compounds listed here are annotated with their pIC50.
Target: CETP (Homo sapiens)
Sequence (P11597 18-493): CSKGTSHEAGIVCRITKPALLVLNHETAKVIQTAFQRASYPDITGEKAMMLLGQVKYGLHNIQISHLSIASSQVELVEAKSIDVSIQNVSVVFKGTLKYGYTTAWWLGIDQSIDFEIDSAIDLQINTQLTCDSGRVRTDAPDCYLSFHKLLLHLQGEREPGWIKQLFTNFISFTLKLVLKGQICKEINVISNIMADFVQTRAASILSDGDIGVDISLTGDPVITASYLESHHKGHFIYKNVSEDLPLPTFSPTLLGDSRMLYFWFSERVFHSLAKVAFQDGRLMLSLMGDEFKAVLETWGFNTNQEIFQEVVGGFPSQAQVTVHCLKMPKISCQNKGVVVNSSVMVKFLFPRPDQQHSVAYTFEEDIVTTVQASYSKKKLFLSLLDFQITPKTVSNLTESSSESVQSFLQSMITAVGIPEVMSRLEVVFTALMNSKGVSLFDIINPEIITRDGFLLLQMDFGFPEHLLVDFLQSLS
Test: In vitro CETP activity inhibitory effect in whole plasma
Details: plasma from healthy subjects containing [3H]CE-HDL3, incubated 4 hours at 37° C.; read-out: CETP activity inhibition in whole plasma IC50
Scale: pIC50 equals -log10([C]), with [C] in mol/L.

{"columns": ["COMPOUND", "MEASURED NUMBER"],
 "data": [
  ["CC1(C(=O)Nc2cc(F)c(F)cc2S)CCCCC1 [Example 19-5]", 4.77]
]}

Consider the record given below.
*Q* Can you look up pIC50 on CETP (Homo sapiens) for CC(C)C(C(=O)Nc1cc(Cl)c(Cl)cc1SC(=O)C(C)(C)C)C1CCCCC1 (stereo not shown) [Example 66-38] ?
*A* 4.59

---

Target: CETP (Homo sapiens)
Sequence (P11597 18-493): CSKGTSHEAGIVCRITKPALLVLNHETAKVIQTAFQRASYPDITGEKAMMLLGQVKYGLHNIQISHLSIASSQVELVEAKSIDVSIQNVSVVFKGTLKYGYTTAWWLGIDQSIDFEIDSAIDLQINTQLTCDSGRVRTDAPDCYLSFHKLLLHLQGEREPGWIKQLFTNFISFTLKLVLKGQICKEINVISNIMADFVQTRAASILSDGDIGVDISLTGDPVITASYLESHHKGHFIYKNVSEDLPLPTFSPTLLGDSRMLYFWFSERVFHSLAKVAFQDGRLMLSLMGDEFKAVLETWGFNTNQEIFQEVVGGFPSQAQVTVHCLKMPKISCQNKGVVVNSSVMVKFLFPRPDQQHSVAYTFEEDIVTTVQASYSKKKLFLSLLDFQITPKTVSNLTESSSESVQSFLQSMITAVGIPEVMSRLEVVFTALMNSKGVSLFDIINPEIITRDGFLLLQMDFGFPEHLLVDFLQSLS
Experiment: Ex vivo CETP activity inhibitory effect of plasma from transgenic mice
Set-up: from tissue; host or cells: plasma of transgenic mice carrying the human CETP gene
Details: mouse, po; 100 mg/kg, p.o.; 6 hours after administration; transgenic mice with human CETP gene; read-out: CETP activity inhibitory rate in plasma from transgenic mouse
compounds and their reported inhibition at 100 mg/kg
Put down the number, then write its unit next to it.

{"columns": ["COMPOUND", "ASSAYED SYSTEM", "RESULT"],
 "data": [
  ["CC(C)CCC1(C(=O)Nc2ccccc2SC(=O)C(C)(C)C)CCCCC1 [Example 33]", "CETP (Homo sapiens)", "52%"],
  ["COc1ccccc1C(=O)Sc1ccccc1NC(=O)C1(CCC(C)C)CCCC1 [Example 25-63]", "CETP (Homo sapiens)", "25%"],
  ["CC(C)CCC1(C(=O)Nc2ccccc2SC(=O)NC(C)(C)C)CCCC1 [Example 25-105]", "CETP (Homo sapiens)", "14%"],
  ["CC(C)CCC1(C(=O)Nc2ccccc2SC(=O)C(C)(C)C)CCCC1 [Example 48]", "CETP (Homo sapiens)", "50%"],
  ["CC(=O)Sc1cc(Cl)c(Cl)cc1NC(=O)C1(CCC(C)C)CCCCC1 [Example 25-84]", "CETP (Homo sapiens)", "17%"],
  ["CC(C)CCC1(C(=O)Nc2cc(Cl)c(Cl)cc2SC(=O)NC(C)(C)C)CCCCC1 [Example 25-102]", "CETP (Homo sapiens)", "9%"]
]}

*Q* I'd like to know its inhibition at 100 mg/kg. The compound in question is CC(C)CCC1(C(=O)Nc2ccccc2SC(=O)c2ccc([N+](=O)[O-])cc2)CCCCC1 [Example 25-46]
*A* 35%

*Q* Would you mind telling me what inhibition at 100 mg/kg value was observed for CC(C)CCC1(C(=O)Nc2ccccc2SSc2ccccc2NC(=O)C2(CCC(C)C)CCCCC2)CCCCC1 [Example 8] ?
*A* 25%
